Every entry's value here was drawn from PubChem BioAssay (NCI).

# System: SK-MEL-28 melanoma
# test summary: NCI tumour cell line growth inhibition, 48 h
measurement label: TGI (µM)
Give your result in µM as a bare value.

[[record]]
compound_structure_string = "COc1cc2c(NC3CCN(C(C)C)CC3)nc(C3CCCCC3)nc2cc1OCCCN1CCCC1"
experimental_target = "SK-MEL-28 melanoma"
measurement_label = "TGI"
output_unit = "µM"
recorded_result = 3.24


Next compound, please.
-- ask So what does the record say about TGI for COc1cc2c3cc1Oc1c(OC)c(OC)cc4c1[C@@H](Cc1ccc(O)c(c1)Oc1ccc(cc1)C[C@@H]3N(C)CC2)N(C)CC4 ?
-- reply 29.5
